Reference source for all entries: patent US7829665B2

- measured.on: full-length NS3/NS4A-2 (HCV NS3 protease) (Hepatitis C virus genotype 1a)
- Construct: Recombinant E. coli or Baculovirus full-length NS3 was diluted to 3.33 μM with assay buffer; made in house; host or cells: E. coli or baculovirus (BV) expression system
- Sequence (P27958 1027-1657): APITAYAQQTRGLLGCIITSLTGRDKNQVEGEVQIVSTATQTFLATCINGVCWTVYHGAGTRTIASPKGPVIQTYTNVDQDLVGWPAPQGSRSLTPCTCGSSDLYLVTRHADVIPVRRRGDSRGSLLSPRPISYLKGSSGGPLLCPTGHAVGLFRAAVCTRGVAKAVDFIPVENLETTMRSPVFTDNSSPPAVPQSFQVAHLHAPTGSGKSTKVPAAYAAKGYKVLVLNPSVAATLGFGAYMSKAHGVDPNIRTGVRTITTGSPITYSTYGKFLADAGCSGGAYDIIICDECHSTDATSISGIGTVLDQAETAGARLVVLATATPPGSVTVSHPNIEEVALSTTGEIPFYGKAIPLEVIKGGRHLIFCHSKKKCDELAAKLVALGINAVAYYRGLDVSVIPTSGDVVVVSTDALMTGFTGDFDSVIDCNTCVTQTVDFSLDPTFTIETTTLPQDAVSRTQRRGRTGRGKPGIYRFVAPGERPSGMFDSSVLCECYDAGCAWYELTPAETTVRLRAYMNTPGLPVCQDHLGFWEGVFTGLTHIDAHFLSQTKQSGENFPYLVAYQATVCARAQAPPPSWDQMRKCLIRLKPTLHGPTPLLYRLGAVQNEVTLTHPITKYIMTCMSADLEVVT
- experimental.details: NS3-NS4 protease assay / NS3 inhibition assay (RETS1 substrate, fluorescence kinetic read)
- Assay type: biochemical
- conditions.used: recombinant E. coli or Baculovirus full-length NS3 with NS4A-2; read-out: NS3-NS4 IC50
- Method: NS3 complex formation with NS4A-2. Recombinant E. coli or Baculovirus full-length NS3 was diluted to 3.33 μM with assay buffer and transferred material to an eppendorf tube and place in water bath in 4° C. refrigerator. The appropriate amount of NS4A-2 to 8.3 mM in assay buffer was added to equal the volume of NS3 in step 2.1.1 (conversion factor—3.8 mg/272 μL assay buffer). […] Read the plate in kinetic mode on the Molecular Devices SpectraMax Gemini XS plate reader. […]

compound	IC50
O=C(N[C@H]1CCCCC/C=C\[C@@H]2C[C@@]2(C(=O)NS(=O)(=O)N2CC(F)(F)C2)NC(=O)C2C[C@@H](OC(=O)N3Cc4cccc(F)c4C3)CN2C1=O)OC1CCCC1 (stereo partly drawn)	< 100 nM
CC(C)(C)OC(=O)N[C@H]1CCCCC/C=C\[C@@H]2C[C@@]2(C(=O)O)NC(=O)[C@@H]2C[C@@H](OC(=O)NCc3ccc(F)cn3)CN2C1=O	< 10000 nM
CC(C)(C)OC(=O)N[C@H]1CCCCC/C=C\[C@@H]2C[C@@]2(C(=O)O)NC(=O)[C@@H]2C[C@@H](OC(=O)N3Cc4ccc(OCCn5cccn5)cc4C3)CN2C1=O	< 100 nM
